system: ES-2 (Ovarian Carcinoma); assay: combination Emax (second highest fraction inhibited in the dose matrix, 72 h); higher = more inhibition; extreme values may be limits of the assay
endpointName: combination Emax
In your answer, state the number alone without any accompanying words.

Ask: Tell me the measured combination Emax of C[C@@H](c1ccc2nccn2c1)n1nnc2ncc(-c3cnn(C)c3)nc21 [Savolitinib] + CN(CC[C@H](CSC1=CC=CC=C1)NC2=C(C=C(C=C2)S(=O)(=O)NC(=O)C3=CC=C(C=C3)N4CCC(CC4)[C@H](C5=CC=CC=C5C6=CC=C(C=C6)Cl)O)S(=O)(=O)C(F)(F)F)CCO [AZD4320] (first compound max 1 µM, 7x7, partner max 1 µM) , please.
Reply: 0.236

Ask: So what's the measured combination Emax for this one? C[C@@H]1COCCN1c1cc(C2([S@](C)(=N)=O)CC2)nc(-c2ccnc3[nH]ccc23)n1 [AZD6738] + O=C(c1cc(Cc2n[nH]c(=O)c3ccccc23)ccc1F)N1CCN(C(=O)C2CC2)CC1 [Olaparib] (first compound max 10 µM, 7x7, partner max 10 µM)
Reply: 0.662

Ask: Which combination Emax reading was recorded for the compound NC1(C(=O)N[C@@H](CCO)c2ccc(Cl)cc2)CCN(c2ncnc3[nH]ccc23)CC1 [Capivasertib] + CCN(CCO)CCCOc1ccc2c(Nc3cc(CC(=O)Nc4cccc(F)c4)[nH]n3)ncnc2c1 [AZD2811] (first compound max 10 µM, 7x7, partner max 1 µM) ?
Reply: 0.413

Ask: combination Emax lookup needed for COc1cccc(OCCCN)c1-c1cc(Nc2cnc(C#N)cn2)n[nH]1 [Prexasertib] + C[C@@H]1COCCN1C2=NC(=NC(=C2)C3(CC3)[S@](=N)(=O)C)C4=C5C=CNC5=NC=C4 [AZD6738] (first compound max 1 µM, 7x7, partner max 10 µM) , thanks.
Reply: 0.867

Ask: Which combination Emax value is on record for COc1nnc2ccc(N3CCC(c4ccc(OCCN5CCN(C)C(=O)[C@H]5C)cc4)CC3)nn12 [AZD5153] + CC1(C)CCC(CN2CCN(c3ccc(C(=O)NS(=O)(=O)c4ccc(NCC5CCOCC5)c([N+](=O)[O-])c4)c(Oc4cnc5[nH]ccc5c4)c3)CC2)=C(c2ccc(Cl)cc2)C1 [Venetoclax] (first compound max 1 µM, 7x7, partner max 1 µM) ?
Reply: 0.546

Ask: Recorded combination Emax of CC(=O)c1c(C)c2cnc(Nc3ccc(N4CCNCC4)cn3)nc2n(C2CCCC2)c1=O [Palbociclib] + Cn1cnc2c(F)c(Nc3ccc(Br)cc3Cl)c(C(=O)NOCCO)cc21 [Selumetinib] (first compound max 10 µM, 7x7, partner max 10 µM) , please.
Reply: 0.569

Ask: Item Cc1c2c(nn1C)CSCc1cc(n(C)n1)CSc1cc(c3ccccc3c1)OCCCc1c(C(=O)O)n(C)c3c-2c(Cl)ccc13 [AZD5991] + C1CN(CCC1(C(=O)N[C@@H](CCO)C2=CC=C(C=C2)Cl)N)C3=NC=NC4=C3C=CN4 [Capivasertib] (first compound max 1 µM, 7x7, partner max 3 µM) has what recorded combination Emax?
Reply: 0.196
